Biological target: Muscarinic acetylcholine receptor
Assay: Receptor binding affinity against Muscarinic acetylcholine receptor from guinea pig heart was determined using [3H]- QNB as radioligand
Type: protein assay, Cavia porcellus
measured parameter: Ki (nM)

given smiles | Ki, nM
Nc1ccc2oc(C3=CN4CCC3CC4)cc2c1 | 837

1. COc1cc(CO)cc2cc(C3=CN4CCC3CC4)oc12
2. OCc1cc(I)cc2cc(C3=CN4CCC3CC4)oc12
3. Fc1ccc2oc(C3=CN4CCC3CC4)cc2c1
Sort the 3 compounds by Ki; largest first, smallest last. Sort the labels as requested; that list is your answer.
1, 2, 3
